B1: Intersectin-1, residues 1156 to 1213; numbered along this chain, Q15811 (parent)
chain: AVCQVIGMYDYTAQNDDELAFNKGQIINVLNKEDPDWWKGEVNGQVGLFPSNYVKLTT

Variants of: B1
method.notes: abundance fitness (aPCA) (normalised: wild type 0, dead -1); higher = more abundant; growth selection in yeast, the domain comes from the species named
condition.context: Homo sapiens
Label criterion met when abundance fitness is at or above -0.6; anything below gets criterion not met.

Evaluate V54T : abundance fitness at minimum -0.6? criterion met

Evaluate D34A : abundance fitness at minimum -0.6? criterion met

Evaluate V42M : abundance fitness at minimum -0.6? criterion met

Evaluate I27A : abundance fitness at minimum -0.6? criterion not met

Evaluate D10H : abundance fitness at minimum -0.6? criterion met

Evaluate K32C : abundance fitness at minimum -0.6? criterion met

Evaluate G47H : abundance fitness at minimum -0.6? criterion not met

Evaluate N15A : abundance fitness at minimum -0.6? criterion met

Evaluate K55Y : abundance fitness at minimum -0.6? criterion met

Evaluate G44H : abundance fitness at minimum -0.6? criterion not met

Evaluate D16N : abundance fitness at minimum -0.6? criterion met

Evaluate D36S : abundance fitness at minimum -0.6? criterion met

Evaluate E41G : abundance fitness at minimum -0.6? criterion not met

Evaluate D36T : abundance fitness at minimum -0.6? criterion met

Evaluate V5T : abundance fitness at minimum -0.6? criterion met

Evaluate I27K : abundance fitness at minimum -0.6? criterion not met

Evaluate Y53T : abundance fitness at minimum -0.6? criterion met

Evaluate G44S : abundance fitness at minimum -0.6? criterion not met

Evaluate N15I : abundance fitness at minimum -0.6? criterion not met

Evaluate K23P : abundance fitness at minimum -0.6? criterion not met

Evaluate N43K : abundance fitness at minimum -0.6? criterion met

Evaluate Q14I : abundance fitness at minimum -0.6? criterion met

Evaluate T57I : abundance fitness at minimum -0.6? criterion met

Evaluate G24Q : abundance fitness at minimum -0.6? criterion met

Evaluate Y11C : abundance fitness at minimum -0.6? criterion met
